Tested system: 20S proteasome
Assay: Activation of 20s proteosome (unknown origin) mediated chymotrypsin-like activity
Assay type: protein-complex assay, Homo sapiens

[
  {
    "Smiles text": "CC1(C)CC[C@]2(C(=O)O)CC[C@]3(C)C(=CC[C@@H]4[C@@]5(C)CC[C@H](O)C(C)(C)[C@@H]5CC[C@]43C)[C@@H]2C1",
    "EC50 / nM": 2700
  }
]

###

Tested system: 20S proteasome
Assay: Activation of human erythrocyte-derived 20s proteosome using CT-L as peptide substrate by fluorescence based analysis
Format: cell-based

[
  {
    "Smiles text": "COc1ccc(Nc2cc(NCC(C)C)c(N)c3c2C(=O)c2ccccc2C3=O)cc1",
    "EC50 / µM": 1.57
  },
  {
    "Smiles text": "CC(C)CNc1cc(NC2CC2)c2c3c(onc13)-c1ccccc1C2=O",
    "EC50 / µM": 3.3
  },
  {
    "Smiles text": "CC(C)CNc1cc(Nc2ccc(N3CCOCC3)cc2)c2c3c(onc13)-c1ccccc1C2=O",
    "EC50 / µM": 1.33
  },
  {
    "Smiles text": "COc1ccc(NC(=O)c2cc(O)c3c(c2)C(=O)c2cccc(O)c2C3=O)cc1",
    "EC50 / µM": 2.05
  },
  {
    "Smiles text": "Cc1ccc(Nc2cc(NCC(C)C)c(N)c3c2C(=O)c2ccccc2C3=O)cc1",
    "EC50 / µM": 3.68
  },
  {
    "Smiles text": "CC(C)CNC(=O)c1cc(O)c2c(c1)C(=O)c1cccc(O)c1C2=O",
    "EC50 / µM": 2.57
  },
  {
    "Smiles text": "O=C1c2cccc(O)c2C(=O)c2c(O)cc(C(=O)N3CCc4ccccc4C3)cc21",
    "EC50 / µM": 4.02
  },
  {
    "Smiles text": "Cc1ccc(Nc2cc(NCC(C)C)c3noc4c3c2C(=O)c2ccccc2-4)cc1",
    "EC50 / µM": 3
  },
  {
    "Smiles text": "Cc1ccccc1Nc1cc(NCC(C)C)c2noc3c2c1C(=O)c1ccccc1-3",
    "EC50 / µM": 3.38
  },
  {
    "Smiles text": "Cc1cccc(Nc2cc(NCCC(C)C)c3noc4c3c2C(=O)c2ccccc2-4)c1",
    "EC50 / µM": 2.09
  }
]
